The measured values listed here are drawn from ChEMBL document CHEMBL1201862.

system: EKVX; test: NCI tumour cell line growth inhibition, 48 h
The source made the active and inactive calls. Cut-off read from the data, not from the text of the source: active = GI50 up to about 1.1 µM and inactive = higher.
In this exercise, the only acceptable responses are active, inactive

Please review the entries below; each comes with its answer.
CSc1cnc2ccccc2c1SC1CN(Cc2ccccc2)c2ccccc2C1=O (stereo not given)    inactive
COC1=CC(=O)C2[C@H]3Cc4ccccc4[C@H]3C2(C)C1=O (stereo not given in full)    inactive
CCOC(=O)Cc1nc(/C(C#N)=C/c2ccco2)[nH]c(=O)c1C#N    inactive

Let's switch to this molecule now.
Ask: Please state the recorded outcome for this molecule: CC1=NN(C(=O)c2ccc(Cl)cc2)C(=O)C1/N=N/c1ccc(S(=O)(=O)Nc2ncccn2)cc1 (stereo not given)
Reply: inactive
